Taken from the supplement of paper PMC9170038.

System: MS2 coat protein
measurement-notes: apparent KD of MS2 coat protein; designed switch direction (-1 OFF switch, 1 ON switch): 1; higher = weaker reporter binding
measurement-context: input ligand: microRNA oligo, concentration not stated
measured-metric: apparent KD of MS2 coat protein (nM)
Write the number in nM without appending the unit.

Some entries whose results are on file:
# sequence-record, measured-metric, units, value
data = [
    ("AACAGUCGGCGAGGAUAUGGACGUACAGGUUUGCCUGUGCGGCUCACAUGAGGAUCACCCAUGUUCUAGAAGGCGCCACUGAGA [Lausrein] (Eterna round: R96, puzzle: Same State NG 2)", "apparent KD of MS2 coat protein", "nM", 48.8),
    ("AUUAAUUAAUUAAUACAUGAGGAUCACCCAUGUAAUAAGAUCAAGGAUAUCAGCUCGAUUAGAGCUGAGAAGGUGAUCACAUGU [SSNG3/17-B2] (Eterna round: R96, puzzle: Same State NG 3)", "apparent KD of MS2 coat protein", "nM", 509),
]

For the next question, use this sequence.
Task item: // returns reported apparent KD of MS2 coat protein for input GUUACAUGAGGAUCACCCAUGUAUGUGUGGGAGUAAGUGUCUUAGGAUAUCUAUUAUUUAAUGUAAGAGAAGGAAGAUUGUUGU [JMF's solution 24] (Eterna round: R96, puzzle: Same State NG 3)
Reply: 106

---

System: K4 kissing-loop RNA reporter;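 also: bound reporter read as fluorescence of individual clusters on recovered sequencing chips by microscopy, with normalized cluster intensities fitted with a binding model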
measurement-notes: apparent KD of K4 kissing-loop reporter; higher = weaker reporter binding
measurement-context: Eterna round: R107; input ligand: FMN 200 uM
measured-metric: apparent KD of K4 kissing-loop reporter (nM)
Write the number in nM without appending the unit.

Task item: Lab note: need apparent KD of K4 kissing-loop reporter for AAGCAGUCACUCGUAUCCAUCGAAGAUGGUCGAGGACCGGUACGGCCGCCACUCGGAGUGAUGUUCCGAAGACUGCAAAAUAAAA [#SwitchBubble 13] on K4 kissing-loop RNA reporter, anyone have it?
Reply: 240

Task item: Lab note: need apparent KD of K4 kissing-loop reporter for AAGUGUCAUUAGACACAGACUACAAUACACUAGGAUAUGCUGAUAAGCAGAAGGAGUGAUGUUCCUUUCAAGUAGUCAAUUAAAU [FmnAX 21 Mat Inspired #SwitchBubble #StaticStem #K4Late] on K4 kissing-loop RNA reporter, anyone have it?
Reply: 237

Task item: Lab note: need apparent KD of K4 kissing-loop reporter for AGGGAUGAUGGAUAAAUAAACAAAGGAGAUACCAGUCAAAUAAUAGGCCCUUGGCAGCUUCAGAUCAGUGAUGUUGAAGAUAUUG [#09 K4 Theophylline A Same State] on K4 kissing-loop RNA reporter, anyone have it?
Reply: 109

Task item: Lab note: need apparent KD of K4 kissing-loop reporter for GGGAGUAGUGCGGCCGCCACUGAGAAAGAAGAAGAAUGUAGUGAUGUUAUGUAGGAAAGGAAGAACAGGACCGGGCAUUAGAUUU [SSTRyptB.H] on K4 kissing-loop RNA reporter, anyone have it?
Reply: 478

Task item: Lab note: need apparent KD of K4 kissing-loop reporter for AAUUGGGACGAAGGAUAUUGUCGGCCAUGUACGAGGUCCGGAUGUCAUGACUGUUAGUGAUGUUAACAAGAAGGUCGAGGGAGAC [theeternabot_exclusion_KL_FMN_B_25] on K4 kissing-loop RNA reporter, anyone have it?
Reply: 87

Task item: Lab note: need apparent KD of K4 kissing-loop reporter for UGAUAGGACAGAAGGAGCGGAGGUCGUCAAAGACGACCAAUACGUUAAAUAGGAGUGAUGUUCCAGGUAGGUCGCUGUCCUAUCU [ArgBX 30 #SwitchBubble #StaticStem] on K4 kissing-loop RNA reporter, anyone have it?
Reply: 123
